Target: Cathepsin D (Bos taurus)
Sequence (P80209 whole entry): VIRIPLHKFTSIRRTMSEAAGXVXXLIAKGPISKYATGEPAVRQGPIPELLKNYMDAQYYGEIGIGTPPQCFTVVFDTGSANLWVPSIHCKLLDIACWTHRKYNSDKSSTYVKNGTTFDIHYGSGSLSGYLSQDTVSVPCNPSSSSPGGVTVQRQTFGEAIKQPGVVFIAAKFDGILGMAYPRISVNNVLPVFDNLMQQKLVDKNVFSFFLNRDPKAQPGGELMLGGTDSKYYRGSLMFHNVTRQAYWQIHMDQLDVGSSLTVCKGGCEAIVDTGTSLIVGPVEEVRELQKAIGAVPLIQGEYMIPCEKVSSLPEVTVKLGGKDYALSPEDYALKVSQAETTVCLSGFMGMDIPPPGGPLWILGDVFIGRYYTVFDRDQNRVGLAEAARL
Assay: Inhibition of conversion of hemoglobin by commercially purchased bovine spleen cathepsin D.
PROPERTY_NAME: IC50

Consider the worked cases shown below.
[
  {
    "MOLECULE": "CC[C@@H](C)[C@H](NC(=O)[C@H](CC1CCCCC1)NC(=O)CCC(=O)O)C(=O)N[C@@H](Cc1ccc2ccccc2c1)[C@@H](O)[C@@H](O)CC(C)C",
    "MEASUREMENT_TARGET": "Cathepsin D (Bos taurus)",
    "OBSERVED": "0.06 µM"
  },
  {
    "MOLECULE": "CC[C@H](C)[C@H](NC(=O)OC(C)(C)C)C(=O)N[C@H](C(=O)N[C@@H](CC(C)C)C(O)CC(N)=O)[C@@H](C)CC (stereo partly drawn)",
    "MEASUREMENT_TARGET": "Cathepsin D (Bos taurus)",
    "OBSERVED": "0.41 µM"
  }
]

Ask: Reported IC50 for CC[C@@H](C)[C@H](NC(=O)OC(C)(C)C)C(=O)N[C@H](C(=O)N[C@@H](CC(C)C)C(O)CC(=O)NCCC(C)C)[C@H](C)CC (stereo partly drawn) : what is it?
Result: 0.082 µM
